Entry source: patent EP4667458A1

# measured.on: SOS1 (Homo sapiens, UniProt Q07889)
# Construct: adding equal amounts of HIS-SOS1cat (160 nM; Cytoskeleton, US); His; purchased Cytoskeleton, US
# Sequence (Q07889 564-1049 limits assumed): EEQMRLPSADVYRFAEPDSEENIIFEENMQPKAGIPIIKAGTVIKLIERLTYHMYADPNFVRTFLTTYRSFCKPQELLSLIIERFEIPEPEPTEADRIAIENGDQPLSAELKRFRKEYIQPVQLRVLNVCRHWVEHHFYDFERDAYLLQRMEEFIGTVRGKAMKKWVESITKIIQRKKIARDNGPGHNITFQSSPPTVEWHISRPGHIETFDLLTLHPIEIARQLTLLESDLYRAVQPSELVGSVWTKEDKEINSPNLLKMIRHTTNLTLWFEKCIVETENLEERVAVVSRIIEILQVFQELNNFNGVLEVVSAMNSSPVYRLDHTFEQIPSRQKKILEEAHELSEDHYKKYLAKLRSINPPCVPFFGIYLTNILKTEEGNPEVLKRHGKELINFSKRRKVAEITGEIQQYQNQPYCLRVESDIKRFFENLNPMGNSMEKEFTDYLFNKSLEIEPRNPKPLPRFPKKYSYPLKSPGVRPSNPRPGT
# assay.remarks: SOS-catalyzed nucleotide exchange assay (HTRF, SOS1-mediated GTP loading of KRAS G12D)
# Type: biochemical
# condition: GST-KRAS G12D, HIS-SOS1cat, EDA-GTP-DY-647P1; compound 128 pM to 10 µM; read-out: SOS-catalyzed nucleotide exchange assay (IC50 range, Grade)
pIC50: −log10 of the molar value.
Examples of compounds with documented pIC50 follow.

Asked: Return pIC50 measured with SOS1 (Homo sapiens, UniProt Q07889) given this compound: COc1ccc(-n2nc(C(=O)N[C@H](C)c3cc(N)cc(C(F)(F)F)c3)ccc2=O)cc1 [Example 30]
Given back: > 6.00

Asked: # iterate: Cc1cc(C(=O)N[C@H](C)c2cc(N)cc(C(F)F)c2)nn(-c2cncc(-c3cnnn3C)c2)c1=O [Example B07]
Given back: > 6.00

Asked: # iterate: CC1CC=C(n2nc(C(=O)N[C@H](C)c3cc(N)cc(C(F)(F)F)c3)ccc2=O)CC1 (stereo partly shown) [Example 66]
Given back: 5.00 to 6.00

Asked: # iterate: C[C@@H](NC(=O)c1ccc(=O)n(-c2ccccc2OC(F)(F)F)n1)c1cc(N)cc(C(F)(F)F)c1 [Example 45]
Given back: > 6.00

Asked: # iterate: C[C@@H](NC(=O)c1ccc(=O)n(-c2ccccc2)n1)c1cccc2ccccc12 [Example 9]
Given back: 5.00 to 6.00

Asked: # iterate: Cc1cc(-n2nc(C(=O)N[C@H](C)c3cc(N)cc(C(F)(F)F)c3)ccc2=O)cs1 [Example 27]
Given back: > 6.00

Asked: # iterate: CCn1nncc1-c1cccc(-n2cc(C(=O)N[C@H](C)c3cccc(C(F)(F)F)c3F)ccc2=O)c1 [Example B04]
Given back: > 6.00

* * *

# measured.on: SOS1 (Homo sapiens)
# Construct: adding equal amounts of HIS-SOS1cat (160 nM; Cytoskeleton, US); His; purchased Cytoskeleton, US
# assay.remarks: SOS-catalyzed nucleotide exchange assay (HTRF, SOS1-mediated GTP loading of KRAS G12D)
# Assay type: biochemical
# condition: GST-KRAS G12D, HIS-SOS1cat, EDA-GTP-DY-647P1; compound 128 pM to 10 µM; read-out: SOS-catalyzed nucleotide exchange assay (IC50 range, Grade)
measure.name: IC50

>>> print(df.to_string())
                               smiles_entry  measure_name    measured
0  COc1ccccc1-n1nc(C(=O)N[C@H](C)c2cccc(C(F)(F)CO)c2)ccc1=O          IC50      < 1 µM
1  C[C@@H](NC(=O)c1ccc(=O)n(-c2cccc(C(=O)N3CCOCC3)c2)c1)c1cc(N)cc(C(F)(F)F)c1          IC50      < 1 µM
2  C[C@@H](NC(=O)c1ccc(=O)n(C23CC(C2)C3)n1)c1cc(N)cc(C(F)(F)F)c1          IC50  1 to 10 µM
3  C[C@@H](NC(=O)c1ccc(=O)n(-c2ccccc2C#N)n1)c1cc(N)cc(C(F)(F)F)c1          IC50      < 1 µM
4  C[C@@H](NC(=O)c1ccc(=O)n(-c2ccccc2)n1)c1cccc(C2CC2)c1          IC50  1 to 10 µM
5  COc1ccc(-n2cc(C(=O)N[C@H](C)c3cccc(C(F)(F)CO)c3F)ccc2=O)c(F)c1OC          IC50      < 1 µM

Switching to the query record.
Asked: Would you kindly share the measured IC50 for C[C@@H](NC(=O)c1ccc(=O)n(-c2cc(F)ccc2F)c1)c1cc(N)cc(C(F)(F)F)c1 ?
Given back: < 1 µM
